measurementProtocol: in vivo
condition: male, C57BL/6J, mouse, po, 5 mg/kg
Where a name gives a salt, the structure may show the parent alone.
I'd be grateful if you could share measured Kp for these entries.
Give bare numbers.

>  <compound>
Clc1cccc(Cl)c1N=C1NCCN1 [Clonidine HCl, clonidine HCl]

>  <recordedEndpoint>
Kp

>  <reportedMeasurement>
2.27

$$$$

Moving on to the next compound.
For the compound Cc1cccc([C@H](C)c2cnc[nH]2)c1C [Dexmedetomidine HCl, dexmedetomidine HCl] , give its measured Kp value.
1.26

----------
targetEntity: α2AAR (α2A-adrenergic receptor) (Homo sapiens, UniProt P08913)
Construct: expressed in transfected cells; host or cells: HEK293
Sequence (P08913 whole entry, species assumed): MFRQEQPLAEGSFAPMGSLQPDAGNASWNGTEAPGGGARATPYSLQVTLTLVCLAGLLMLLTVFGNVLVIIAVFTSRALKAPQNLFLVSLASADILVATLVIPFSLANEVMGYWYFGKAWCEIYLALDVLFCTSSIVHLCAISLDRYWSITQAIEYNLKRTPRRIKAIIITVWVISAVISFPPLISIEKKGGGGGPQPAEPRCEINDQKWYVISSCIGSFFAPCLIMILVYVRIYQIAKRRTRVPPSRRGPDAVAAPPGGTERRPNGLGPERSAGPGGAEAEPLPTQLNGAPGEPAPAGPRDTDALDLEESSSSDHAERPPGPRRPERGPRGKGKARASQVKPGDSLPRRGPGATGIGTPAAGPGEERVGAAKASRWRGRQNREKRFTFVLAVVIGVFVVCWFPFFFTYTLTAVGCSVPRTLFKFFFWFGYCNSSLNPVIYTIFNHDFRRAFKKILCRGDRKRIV
measurementProtocol: α2AAR FLIPR assay (agonist activity)
Type: cell-based
condition: FLIPR, α2AAR cell line hosted in HEK293 cells; read-out: α2A agonist activity (EC50)
pEC50: −log10 of the molar value.
recordedEndpoint: pEC50

Give pEC50 for each listed item.
1. Cc1cccc(C(c2cccc(NC(=O)CCN3CCNCC3)c2)c2c[nH]cn2)c1C (centres unmarked) [compound 90]
2. Cc1cccc(C(Cc2ccc(NC(=O)CC3CCCCO3)cc2)c2c[nH]cn2)c1C (centres unmarked) [compound 169]
3. Cc1cccc(C(c2cccc(Nc3ccccn3)c2)c2c[nH]cn2)c1C (centres unmarked) [compound 59]
4. Cc1cccc(C(Cc2ccc(C(=O)NC3CCOCC3)cc2)c2c[nH]cn2)c1C (centres unmarked) [compound 177]
5. Cc1cccc(C(c2cccc(C(=O)NOC3CCOCC3)c2)c2c[nH]cn2)c1C (centres unmarked) [compound 145]
6. Cc1cccc(C(c2cccc(C(N)=O)c2)c2c[nH]cn2)c1C (single isomer, unassigned) [5-B]

1. 6.60 to 7.30
2. > 8.00
3. 6.60 to 7.30
4. > 8.00
5. 7.30 to 8.00
6. 7.30 to 8.00

Give pEC50 for each listed item.
1. Cc1cccc(C(c2cccc(NC(=O)CC3CCOCC3)c2)c2c[nH]cn2)c1C (centres unmarked) [compound 80]
2. CONC(=O)c1cccc(C(c2c[nH]cn2)c2cccc(C)c2C)c1F (centres unmarked) [compound 54]

1. 7.30 to 8.00
2. 7.30 to 8.00

Values compiled from patent US20240374573A1.
